# experiment: in vitro
# measurement_parameters: African green monkey
readout: viability

Documented viability of COc1ccc(-c2cc(=O)c3c(OC)cc(OC)c(OC)c3o2)cc1OC : 58.5%
